Source of measurements: patent US20240343803A1

Target: T1, human PVRIG-his (AcroBiosystems, Cat NO. PVG-H52H4) (human, UniProt Q6DKI7 41-171, limits assumed)
T1 construct: also called human PVRIG protein
T1 sequence (looked up): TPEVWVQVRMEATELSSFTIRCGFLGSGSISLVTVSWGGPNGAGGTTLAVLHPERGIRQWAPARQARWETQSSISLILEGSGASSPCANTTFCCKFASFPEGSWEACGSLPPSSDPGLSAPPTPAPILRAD
Assay: competition ELISA, PVRIG-His coated, competitor human PVRL2-mFc
# note: boundary value 0.6 nM maps to false; IC50 below it maps to true

Binder: PVRIG-A105-H4 (Fc fusion, humanized variant of PVRIG-A105; also called A105.VH4; not shown: constant part not restated for the humanized forms; parents are VHH-hinge-CH2-CH3 of human IgG1; detected by anti-human) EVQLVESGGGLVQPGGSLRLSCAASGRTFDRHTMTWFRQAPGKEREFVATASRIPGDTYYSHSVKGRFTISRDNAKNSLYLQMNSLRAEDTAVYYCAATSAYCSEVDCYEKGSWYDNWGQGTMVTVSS
Class Label: false
//
Binder: PVRIG-A105-H2 (Fc fusion, humanized variant of PVRIG-A105; also called A105 VH2; not shown: constant part not restated for the humanized forms; parents are VHH-hinge-CH2-CH3 of human IgG1; detected by anti-human) EVQLVESGGGLVQPGGSLRLSCAASGRTFDRHTMTWFRQAPGKEREFVATASRIPGDTYYVDSVKGRFTISRDNAKNSLYLQMNSLRAEDTAVYYCAATSAYCSEVDCYEKGSWYDNWGQGTMVTVSS
Class Label: true
//
Binder: PVRIG-A105-H3 (Fc fusion, humanized variant of PVRIG-A105; also called A105.VH3; not shown: constant part not restated for the humanized forms; parents are VHH-hinge-CH2-CH3 of human IgG1; detected by anti-human) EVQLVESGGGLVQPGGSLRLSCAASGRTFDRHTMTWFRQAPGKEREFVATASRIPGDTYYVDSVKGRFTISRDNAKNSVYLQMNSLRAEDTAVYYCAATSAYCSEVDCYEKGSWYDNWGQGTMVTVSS
Class Label: false
//
Binder: PVRIG-A50-H1c (Fc fusion, humanized variant of PVRIG-A50; also called A50.VH1c; not shown: constant part not restated for the humanized forms; parents are VHH-hinge-CH2-CH3 of human IgG1; detected by anti-human) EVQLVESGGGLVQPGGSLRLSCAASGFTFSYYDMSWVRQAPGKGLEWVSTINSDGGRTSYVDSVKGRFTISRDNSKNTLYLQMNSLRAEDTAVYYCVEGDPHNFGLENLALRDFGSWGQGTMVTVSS
Class Label: false
//
Binder: PVRIG-A50-H1e (Fc fusion, humanized variant of PVRIG-A50; also called VH1e; not shown: constant part not restated for the humanized forms; parents are VHH-hinge-CH2-CH3 of human IgG1; detected by anti-human) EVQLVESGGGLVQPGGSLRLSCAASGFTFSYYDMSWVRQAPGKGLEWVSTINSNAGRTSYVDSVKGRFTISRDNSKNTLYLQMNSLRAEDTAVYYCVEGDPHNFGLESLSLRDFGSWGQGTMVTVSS
Class Label: false

QUERY: Identify whether the binder PVRIG-A105-H1 (Fc fusion, humanized variant of PVRIG-A105; also called A105.VH1; not shown: constant part not restated for the humanized forms; parents are VHH-hinge-CH2-CH3 of human IgG1; detected by anti-human) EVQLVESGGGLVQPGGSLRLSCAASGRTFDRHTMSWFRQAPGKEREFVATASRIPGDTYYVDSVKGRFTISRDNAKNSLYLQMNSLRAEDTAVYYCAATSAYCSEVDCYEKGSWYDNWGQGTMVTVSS records IC50 below 0.6 nM.
RESULT: true

QUERY: Identify whether the binder PVRIG-A50-H1 (Fc fusion, humanized variant of PVRIG-A50; also called A50.VH1; not shown: constant part not restated for the humanized forms; parents are VHH-hinge-CH2-CH3 of human IgG1; detected by anti-human) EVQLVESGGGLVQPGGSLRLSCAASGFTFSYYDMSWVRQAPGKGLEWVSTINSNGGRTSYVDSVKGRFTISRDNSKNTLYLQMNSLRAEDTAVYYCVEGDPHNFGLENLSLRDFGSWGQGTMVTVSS records IC50 below 0.6 nM.
RESULT: false

QUERY: Identify whether the binder PVRIG-A118-H3 (Fc fusion, humanized variant of PVRIG-A118; also called A118.VH3; not shown: constant part not restated for the humanized forms; parents are VHH-hinge-CH2-CH3 of human IgG1; detected by anti-human) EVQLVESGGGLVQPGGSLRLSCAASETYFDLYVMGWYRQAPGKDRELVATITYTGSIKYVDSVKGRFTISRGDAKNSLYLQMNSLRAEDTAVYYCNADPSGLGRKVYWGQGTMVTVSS records IC50 below 0.6 nM.
RESULT: true

QUERY: Identify whether the binder PVRIG-A118-H4 (Fc fusion, humanized variant of PVRIG-A118; also called A118.VH4; not shown: constant part not restated for the humanized forms; parents are VHH-hinge-CH2-CH3 of human IgG1; detected by anti-human) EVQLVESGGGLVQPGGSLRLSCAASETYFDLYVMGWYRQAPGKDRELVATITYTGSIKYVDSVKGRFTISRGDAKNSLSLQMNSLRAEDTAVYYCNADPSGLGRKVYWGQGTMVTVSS records IC50 below 0.6 nM.
RESULT: true

QUERY: Identify whether the binder PVRIG-A50-H2a (Fc fusion, humanized variant of PVRIG-A50; also called A50.VH2a; not shown: constant part not restated for the humanized forms; parents are VHH-hinge-CH2-CH3 of human IgG1; detected by anti-human) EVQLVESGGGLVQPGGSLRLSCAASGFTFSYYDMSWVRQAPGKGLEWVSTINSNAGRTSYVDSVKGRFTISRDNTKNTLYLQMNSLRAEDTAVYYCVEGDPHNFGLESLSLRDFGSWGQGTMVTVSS records IC50 below 0.6 nM.
RESULT: false

QUERY: Identify whether the binder PVRIG-A118-H1 (Fc fusion, humanized variant of PVRIG-A118; also called A118.VH1; not shown: constant part not restated for the humanized forms; parents are VHH-hinge-CH2-CH3 of human IgG1; detected by anti-human) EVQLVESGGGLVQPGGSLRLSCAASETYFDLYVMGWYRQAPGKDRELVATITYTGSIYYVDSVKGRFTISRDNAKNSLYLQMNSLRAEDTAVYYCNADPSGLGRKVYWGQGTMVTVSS records IC50 below 0.6 nM.
RESULT: true

QUERY: Identify whether the binder PVRIG-A50-H1a (Fc fusion, humanized variant of PVRIG-A50; also called A50.VH1a; not shown: constant part not restated for the humanized forms; parents are VHH-hinge-CH2-CH3 of human IgG1; detected by anti-human) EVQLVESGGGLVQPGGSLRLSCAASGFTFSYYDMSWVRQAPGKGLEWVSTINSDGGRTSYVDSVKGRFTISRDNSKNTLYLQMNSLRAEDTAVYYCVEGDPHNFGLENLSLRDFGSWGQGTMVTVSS records IC50 below 0.6 nM.
RESULT: false

QUERY: Identify whether the binder PVRIG-A118-H2 (Fc fusion, humanized variant of PVRIG-A118; also called A118.VH2; not shown: constant part not restated for the humanized forms; parents are VHH-hinge-CH2-CH3 of human IgG1; detected by anti-human) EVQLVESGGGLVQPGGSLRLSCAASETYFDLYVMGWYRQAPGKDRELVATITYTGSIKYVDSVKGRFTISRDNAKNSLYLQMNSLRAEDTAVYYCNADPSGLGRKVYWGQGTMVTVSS records IC50 below 0.6 nM.
RESULT: true

QUERY: Identify whether the binder PVRIG-A118-H5 (Fc fusion, humanized variant of PVRIG-A118; also called A118.VH5; not shown: constant part not restated for the humanized forms; parents are VHH-hinge-CH2-CH3 of human IgG1; detected by anti-human) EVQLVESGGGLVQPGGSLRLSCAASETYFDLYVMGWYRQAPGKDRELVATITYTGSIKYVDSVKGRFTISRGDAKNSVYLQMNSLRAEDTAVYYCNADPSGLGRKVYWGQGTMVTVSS records IC50 below 0.6 nM.
RESULT: true

QUERY: Identify whether the binder PVRIG-A50-H1b (Fc fusion, humanized variant of PVRIG-A50; also called A50.VH1b; not shown: constant part not restated for the humanized forms; parents are VHH-hinge-CH2-CH3 of human IgG1; detected by anti-human) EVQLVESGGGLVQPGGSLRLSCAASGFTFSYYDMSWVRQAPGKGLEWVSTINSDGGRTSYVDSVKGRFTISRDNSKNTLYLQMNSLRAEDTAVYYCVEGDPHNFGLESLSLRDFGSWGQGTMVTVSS records IC50 below 0.6 nM.
RESULT: false
